Listed below: self-cleavage values for each entry.
B1: LINE1-full (parent)
chain: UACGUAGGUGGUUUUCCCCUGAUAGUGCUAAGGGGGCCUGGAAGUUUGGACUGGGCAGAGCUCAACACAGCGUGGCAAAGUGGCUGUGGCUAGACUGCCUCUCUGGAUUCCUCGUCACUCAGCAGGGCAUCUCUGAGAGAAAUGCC

variants of: B1; experiment: self-cleavage, relative activity (ratio to wild type); higher = more cleavage; in vitro, sequencing; the parent is a self-cleaving ribozyme
Keep the answer to the number alone.

>>> print(df.to_string())
   mutation_label  data_value
0      U85G A124G        0.32
1       U26A A78U        1.61
2            G33U        1.27
3        G7A U23A        0.85
4       A64G G88C        0.04

For the variant U9A U85A , what self-cleavage is on record?
0.09
